# Tested on: Plasmodium falciparum NF54 stage V gametocytes
# method description: viability index relative to DMSO control (fraction); higher = less gametocyte killing
# assay conditions: 2.5 µM, library set: Broad Institute DOS, incubation time: 72 h
The full ranking holds about 9,900 compounds; the median of “viability index relative to DMSO control” is about 1, and the lowest 2% start at about 0.85. The entries come from a sample that favours the lowest values as a whole.
The entries below are paired with their reported viability index.
Simply state the number, no unit and no words.

Here are 3 compounds together with their reported answers.
# get_value(readout= viability index, system= Plasmodium falciparum NF54 stage V gametocytes) for CN1[C@@H]2Cn3c(ccc(-c4ccncc4)c3=O)[C@H]1[C@@H](C(=O)N1CCC(Cc3ccccc3)CC1)[C@@H]2CO
1.11

# get_value(readout= viability index, system= Plasmodium falciparum NF54 stage V gametocytes) for COc1ccc(C(=O)Nc2ccc3c(c2)C(=O)N(C)[C@@H]2CC[C@@H](CC(=O)NCC4CC4)O[C@H]2CO3)cc1
0.932

# get_value(readout= viability index, system= Plasmodium falciparum NF54 stage V gametocytes) for CN1C(=O)c2cc(NC(=O)Nc3ccc(Cl)cc3)ccc2OC[C@@H]2O[C@H](CC(=O)NCCN3CCCCC3)CC[C@H]21
0.955

Continue with the next compound.
# get_value(readout= viability index, system= Plasmodium falciparum NF54 stage V gametocytes) for O=C(C[C@H]1CC[C@H]2[C@@H](COC[C@@H](O)CN2S(=O)(=O)c2ccc(F)cc2)O1)NCCN1CCCCC1
1.01

###

# Test system: Plasmodium falciparum NF54 stage V gametocytes
# method description: viability index relative to DMSO control (fraction); higher = less gametocyte killing
# assay conditions: 2.5 µM, library set: Broad Institute DOS, incubation time: 72 h
The full ranking holds about 9,900 compounds; the median of “viability index relative to DMSO control” is about 1, and the lowest 2% start at about 0.85. The sample holds the lowest values, similar compounds and a random draw of the others, so the mix is not that of the screen.
The entries below are paired with their reported viability index.
Simply state the number, no unit and no words.

# get_value(readout= viability index, system= Plasmodium falciparum NF54 stage V gametocytes) for CC(C)CC#Cc1ccc([C@@H]2[C@H]3CN(C(=O)Nc4ccccc4)CCCCN3[C@H]2CO)cc1
0.542

# get_value(readout= viability index, system= Plasmodium falciparum NF54 stage V gametocytes) for CC(C)CC#Cc1ccc([C@@H]2[C@@H](CO)N3CCCCN(C(=O)Nc4ccccc4)C[C@@H]23)cc1
1

# get_value(readout= viability index, system= Plasmodium falciparum NF54 stage V gametocytes) for CC(C)CC#Cc1ccc([C@H]2[C@H](CO)N3CCCCN(C(=O)Nc4ccccc4)C[C@@H]23)cc1
0.935

# get_value(readout= viability index, system= Plasmodium falciparum NF54 stage V gametocytes) for CC(C)CC#Cc1ccc([C@H]2[C@H]3CN(C(=O)Nc4ccccc4)CCCCN3[C@H]2CO)cc1
0.99

# get_value(readout= viability index, system= Plasmodium falciparum NF54 stage V gametocytes) for CC(C)CC#Cc1ccc([C@H]2[C@@H](CO)N3CCCCN(C(=O)Nc4ccccc4)C[C@H]23)cc1
0.782

# get_value(readout= viability index, system= Plasmodium falciparum NF54 stage V gametocytes) for CC(C)CC#Cc1ccc([C@H]2[C@@H](CO)N3CCCCN(C(=O)Nc4ccccc4)C[C@@H]23)cc1
1.02

# get_value(readout= viability index, system= Plasmodium falciparum NF54 stage V gametocytes) for C[C@H](CO)N1C[C@H](C)[C@H](CN(C)C(=O)c2cc(Cl)cc(Cl)c2)OCc2ccccc2-c2ccccc2C1=O
1.04

Continue with the next compound.
# get_value(readout= viability index, system= Plasmodium falciparum NF54 stage V gametocytes) for Cc1ccc(OC(=O)N(C)C[C@@H]2OCc3ccccc3-c3ccccc3C(=O)N([C@@H](C)CO)C[C@H]2C)cc1
0.88

###

# Tested on: Plasmodium falciparum NF54 stage V gametocytes
# method description: viability index relative to DMSO control (fraction); higher = less gametocyte killing
# assay conditions: 2.5 µM, library set: Broad Institute DOS, incubation time: 72 h
The full ranking holds about 9,900 compounds; the median of “viability index relative to DMSO control” is about 1, and the lowest 2% start at about 0.85. The sample holds the lowest values, similar compounds and a random draw of the others, so the mix is not that of the screen.
measured parameter: viability index

Please look up its viability index: C/C=C/c1ccc2c(c1)O[C@H](CN(C)C(=O)Nc1ccc(OC)cc1)[C@H](C)CN([C@@H](C)CO)S2(=O)=O
0.988

Please look up its viability index: COc1ccc(S(=O)(=O)Nc2ccc3c(c2)C(=O)N([C@@H](C)CO)C[C@H](C)[C@H](CN(C)S(=O)(=O)c2ccc(Cl)cc2)OCCCC[C@@H](C)O3)cc1
0.953

Please look up its viability index: COc1ccc(S(=O)(=O)Nc2ccc3c(c2)C(=O)N([C@@H](C)CO)C[C@H](C)[C@H](CN(C)Cc2ccc(C(F)(F)F)cc2)OCCCC[C@@H](C)O3)cc1
1.05

Please look up its viability index: COc1ccc(S(=O)(=O)Nc2ccc3c(c2)C(=O)N([C@@H](C)CO)C[C@@H](C)[C@@H](CN(C)Cc2ccc(C(F)(F)F)cc2)OCCCC[C@H](C)O3)cc1
0.994

Please look up its viability index: COc1ccc(S(=O)(=O)Nc2ccc3c(c2)C(=O)N([C@@H](C)CO)C[C@H](C)[C@@H](CN(C)Cc2ccc(C(F)(F)F)cc2)OCCCC[C@@H](C)O3)cc1
0.829

Continuing:
Please look up its viability index: Cc1ccccc1-c1ccc2c(c1)O[C@@H](CN(C)C(=O)Nc1ccc(C(F)(F)F)cc1)[C@H](C)CN([C@@H](C)CO)S2(=O)=O
1.09

###

# Test system: Plasmodium falciparum NF54 stage V gametocytes
# method description: viability index relative to DMSO control (fraction); higher = less gametocyte killing
# assay conditions: 2.5 µM, library set: Broad Institute DOS, incubation time: 72 h
Whole data set: some 9,900 compounds, median “viability index relative to DMSO control” near 1, cut for the lowest 2% near 0.85. The list comes from a sample in which the lowest values are over-represented; it also holds close analogues and randomly drawn compounds.
The entries below are paired with their reported viability index.
Simply state the number, no unit and no words.

Here are 3 compounds together with their reported answers.
# get_value(readout= viability index, system= Plasmodium falciparum NF54 stage V gametocytes) for COc1ccc2c3c([C@@H](CO)NC[C@]33CCN(Cc4ccncc4)CC3)n(C)c2c1
1.01

# get_value(readout= viability index, system= Plasmodium falciparum NF54 stage V gametocytes) for COC(=O)C[C@H]1C[C@H]2c3cc(N)ccc3O[C@H]2[C@H](CO)O1
1.05

# get_value(readout= viability index, system= Plasmodium falciparum NF54 stage V gametocytes) for C[C@@H]1CN([C@@H](C)CO)C(=O)c2cc(NC(=O)Nc3cccc4ccccc34)ccc2O[C@@H](C)CCCCO[C@@H]1CN(C)S(=O)(=O)c1cn(C)cn1
0.949

Continuing:
# get_value(readout= viability index, system= Plasmodium falciparum NF54 stage V gametocytes) for Cc1noc(C)c1S(=O)(=O)Nc1ccc2c(c1)C(=O)N([C@H](C)CO)C[C@@H](C)[C@H](CN(C)Cc1ccc(C(=O)O)cc1)OCCCC[C@@H](C)O2
1.07

###

# System: Plasmodium falciparum NF54 stage V gametocytes
# method description: viability index relative to DMSO control (fraction); higher = less gametocyte killing
# assay conditions: 2.5 µM, library set: Broad Institute DOS, incubation time: 72 h
In all, about 9,900 compounds were measured (“viability index relative to DMSO control”: median about 1, lowest 2% from about 0.85 on). This excerpt belongs to a sample that is enriched for the lowest values.
Binary call on viability index with cut-off 1: strictly below means true (1), and equality or higher means false (0).

Previously resolved entries follow.
Bench note: check whether O=C(Nc1cccc(F)c1)N1CCCCN2[C@H](CO)[C@@H](c3ccc(C#Cc4cccnc4)cc3)[C@@H]2C1 shows viability index below 1
false (0)

Bench note: check whether CCCN(C)C[C@H]1Oc2cc(/C=C/c3ccccc3)ccc2S(=O)(=O)N([C@H](C)CO)C[C@H]1C shows viability index below 1
false (0)

Bench note: check whether O=C(Nc1cccc(F)c1)N1CCCCN2[C@@H](CO)[C@H](c3ccc(C#Cc4cccnc4)cc3)[C@@H]2C1 shows viability index below 1
false (0)

Continuing:
Bench note: check whether N#C[C@H]1N[C@H](CO)[C@@H]1c1ccc(C#Cc2ccccc2F)cc1 shows viability index below 1
false (0)

Bench note: check whether O=C(Nc1cccc(F)c1)N1CCCCN2[C@H](CO)[C@H](c3ccc(C#Cc4cccnc4)cc3)[C@H]2C1 shows viability index below 1
true (1)

Bench note: check whether O=C(Nc1cccc(F)c1)N1CCCCN2[C@H](C1)[C@H](c1ccc(C#Cc3cccnc3)cc1)[C@@H]2CO shows viability index below 1
true (1)

Bench note: check whether COCC#Cc1ccc([C@@H]2[C@H](CO)N3CCCCN(Cc4cccnc4)C[C@@H]23)cc1 shows viability index below 1
false (0)

The measurements presented in this section are drawn from the supplement of paper PMC4723716.
